- SYSTEM_NAME: Human P2Y12 (Homo sapiens)
- Construct: expressed in transfected cells
- Sequence (Q9H244 whole entry): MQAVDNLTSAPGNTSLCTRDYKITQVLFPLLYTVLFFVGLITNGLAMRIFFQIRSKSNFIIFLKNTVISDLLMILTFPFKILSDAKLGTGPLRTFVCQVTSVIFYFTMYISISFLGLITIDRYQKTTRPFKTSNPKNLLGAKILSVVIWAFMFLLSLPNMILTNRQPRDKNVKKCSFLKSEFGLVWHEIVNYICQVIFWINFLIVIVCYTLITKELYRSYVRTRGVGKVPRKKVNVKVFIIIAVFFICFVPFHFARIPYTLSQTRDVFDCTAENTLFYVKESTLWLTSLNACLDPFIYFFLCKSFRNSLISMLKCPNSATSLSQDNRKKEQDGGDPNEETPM
- ASSAY_NAME: Substitution test for the binding between human P2Y12 and 2-methylthio-ADP (2-MeS-ADP)
- RECORDED_CONDITIONS: compound 30 nM (final concentration); [33P]-2-MeS-ADP binding to P2Y12 protein-expressing C6-15 cell membrane fraction
QUANTITY_KIND: inhibition at 0.03 µM (%)
Report the figure in % without appending any unit label.

Examples with answers:
O=C(O)COc1cccc(Cn2c(=O)c3cc(F)c(NC4CCCCC4)cc3n(C3CCCC3)c2=O)c1 [Example 157] ... 67
O=C(O)CNC(=O)Cn1c(=O)c2cc(F)c(NC3CCCCC3)cc2n(C2CCCC2)c1=O [Example 42] ... 56
O=C(O)COn1c(=O)c2cc(F)c(NC3CCCCC3)cc2n(C2CCCC2)c1=O [Example 24] ... 60
O=C(O)CCCNn1c(=O)c2cc(F)c(NC3CCCCC3)cc2n(C2CCCC2)c1=O [Example 155] ... 72

Prompt: Look up inhibition at 0.03 µM for this molecule: CC(CCn1c(=O)c2cc(F)c(NC3CCCCC3)cc2n(C2CCCC2)c1=O)C(=O)O (centres unmarked) [Example 114]
Completion: 71

====

Reported inhibition at 10 µM values for the following compounds.
- Tested on: human platelets (platelet rich plasma), ADP-induced aggregation
- ASSAY_NAME: Human platelet aggregation inhibitory activity measurement test (ADP-induced, PRP)
- Type: cell-based
- RECORDED_CONDITIONS: compound 10 μM (final concentration); ADP-induced aggregation of human PRP; area under the platelet aggregation curve
Respond with the bare value in %.

O=C(O)CNC(=O)Cn1c(=O)c2cc(F)c(NC3CCCCC3)cc2n(C2CCCC2)c1=O ... 75
O=C(O)/C=C/Cn1c(=O)c2cc(F)c(NC3CCCCC3)cc2n(C2CCCC2)c1=O ... 86

Prompt: Write down the reported inhibition at 10 µM of O=C(O)COn1c(=O)c2cc(F)c(NC3CCCCC3)cc2n(C2CCCC2)c1=O , test system: human platelets (platelet rich plasma), ADP-induced aggregation.
Completion: 89

====

- Tested on: human platelets (platelet rich plasma), ADP-induced aggregation
- ASSAY_NAME: Human platelet aggregation inhibitory activity measurement test (ADP-induced, PRP)
- Assay type: cell-based
- RECORDED_CONDITIONS: compound 10 μM (final concentration); ADP-induced aggregation of human PRP; area under the platelet aggregation curve
QUANTITY_KIND: inhibition at 10 µM (%)
Report the figure in % without appending any unit label.

Observe how each entry below is paired with its result.
CC(CCn1c(=O)c2cc(F)c(NC3CCCCC3)cc2n(C2CCCC2)c1=O)C(=O)O (stereo not shown) ... 91
O=C(O)CCCNn1c(=O)c2cc(F)c(NC3CCCCC3)cc2n(C2CCCC2)c1=O ... 93
CC(C)n1c(=O)n(CCCC(=O)O)c(=O)c2cc(F)c(NC3CCCCC3)cc21 ... 88

// below: inhibition at 10 µM requested for another compound
Prompt: So what's the measured inhibition at 10 µM for this one? O=C(O)Cn1c(=O)c2cc(F)c(NCC3CC3)cc2n(C2CCCC2)c1=O
Completion: 50

Cited source for all entries: patent US20100113391A1
